Please go through the items and note down their pKi.
Molecular target: rat orexin 1 receptor (Rattus norvegicus, UniProt P56718)
Experiment: Rat orexin 1 receptor radioligand binding
Details: rat orexin 1 receptor; averages of 2-20 runs; read-out: rOX1 Ki
Scale: pKi equals -log10([C]), with [C] in mol/L.

// pKi lookup, key: `O=C(c1cccc(F)c1-c1ncccn1)N1C[C@H]2C[C@@H](Nc3ccc(C(F)(F)F)cn3)[C@@H]1C2` 8.70

`O=C(c1cc(F)ccc1-n1nccn1)N1C[C@H]2C[C@@H](Oc3ccc(Cl)cn3)[C@@H]1C2` ? 7.77

Param item: `O=C(c1ccccc1-n1nccn1)N1C[C@H]2C[C@@H](Nc3ccc(Cl)cn3)[C@@H]1C2` 8.52

Now the same for `O=C(c1cccc(F)c1-c1ncccn1)N1C[C@H]2C[C@@H](Nc3ncc(C(F)(F)F)cc3F)[C@@H]1C2` 8.30

Please give the result for `Cc1cnc(C(=O)N2C[C@H]3C[C@@H](Nc4cnc(C(F)(F)F)cn4)[C@@H]2C3)c(-n2nccn2)c1` too. 7.55

Also need `O=C(c1ccc(F)cc1-c1ncccn1)N1C[C@H]2C[C@@H](Nc3cnc(C(F)(F)F)cn3)[C@@H]1C2` , thanks. 7.96

Entry to check: `CN(c1ccc(C(F)(F)F)cn1)[C@@H]1C[C@H]2C[C@@H]1N(C(=O)c1cccc(F)c1-c1ncccn1)C2` 8.22

Ref: patent US9611277B2
